- assayed-system: recombinant NS3 protease with the NS4A peptide cofactor … (molar ratio enzyme:cofactor 1:100) (hepatitis C virus genotype 1b)
- test-name: cell-based or functional assay
Where no end group is shown, it is not given here. [ ]: non-standard residue; d: D form. Ac3c = NC1(C(=O)O)CC1
Measured IC50, listed per entry for reference.
experimental-readout: IC50 (µM)

{"binder": "{(HOOC-(CH2)2)2‑NC(O)‑CH2‑CH(cyclohexyl)‑C(O)}-Val-[Pro(4-(1-NpCH2O))]-[Ac3c] [Compound 413 (Table 4): B [HOOC-(CH2)2]2-NC(O)-; R4 cyclohexyl; P3 Val; R13 1-NpCH2O; P1 Acca]", "experimental-readout": "IC50", "readout-number": 0.12}
{"binder": "{HOOC‑CH2CH2‑N(Me)2‑C(O)‑CH2‑CH(cyclohexyl)‑C(O)}-Val-[Pro(4-(1-NpCH2O))]-[Ac3c] [Compound 407 (Table 4): B HOOC-CH2CH2-N(Me)2-C(O)-; R4 cyclohexyl; P3 Val; R13 1-NpCH2O; P1 Acca]", "experimental-readout": "IC50", "readout-number": 1.5}
{"binder": "{MeOOC‑CH2‑CH2‑N(Me)c(O)‑CH2‑CH(cyclohexyl)‑C(O)}-Val-[Pro(4-(1-NpCH2O))]-[Ac3c] [Compound 406 (Table 4): B MeOOC-CH2-CH2-N(Me)c(O)-; R4 cyclohexyl; P3 Val; R13 1-NpCH2O; P1 Acca]", "experimental-readout": "IC50", "readout-number": 25}
{"binder": "{(HOOC-(CH2)2)2‑NH‑CH2‑CH2‑CH(cyclohexyl)‑C(O)}-Val-[Pro(4-(1-NpCH2O))]-[Ac3c] [Compound 411 (Table 4): B [HOOC-(CH2)2]2-NH-CH2-; R4 cyclohexyl; P3 Val; R13 1-NpCH2O; P1 Acca]", "experimental-readout": "IC50", "readout-number": 0.36}
{"binder": "{HOOC‑CH2CH2‑N(Me)C(O)‑CH2‑CH(cyclohexyl)‑C(O)}-Val-[Pro(4-(1-NpCH2O))]-[Ac3c] [Compound 405 (Table 4): B HOOC-CH2CH2-N(Me)C(O)-; R4 cyclohexyl; P3 Val; R13 1-NpCH2O; P1 Acca]", "experimental-readout": "IC50", "readout-number": 1.6}
